# Test target: recombinant human MAO-B (monoamine oxidase-B) (Homo sapiens, UniProt P27338)
# Construct: purchased Sigma-Aldrich
# Sequence (P27338 whole entry): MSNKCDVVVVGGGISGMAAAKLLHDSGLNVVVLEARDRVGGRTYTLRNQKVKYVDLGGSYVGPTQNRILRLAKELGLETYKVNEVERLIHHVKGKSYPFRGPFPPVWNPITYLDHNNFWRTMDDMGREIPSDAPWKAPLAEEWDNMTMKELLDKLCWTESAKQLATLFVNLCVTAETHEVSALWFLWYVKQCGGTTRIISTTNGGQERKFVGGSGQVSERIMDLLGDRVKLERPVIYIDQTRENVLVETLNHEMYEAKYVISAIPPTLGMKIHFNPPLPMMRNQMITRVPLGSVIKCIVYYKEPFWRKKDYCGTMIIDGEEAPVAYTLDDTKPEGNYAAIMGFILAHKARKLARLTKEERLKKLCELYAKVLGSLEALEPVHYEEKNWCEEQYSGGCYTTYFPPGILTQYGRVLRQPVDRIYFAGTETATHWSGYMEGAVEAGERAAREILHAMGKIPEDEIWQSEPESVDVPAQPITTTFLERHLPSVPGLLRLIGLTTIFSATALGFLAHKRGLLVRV
# Procedure text: Amplex Red HRP-coupled amine oxidase activity evaluation, recombinant human MAO-B
# Assay type: biochemical
# Measurement conditions: substrate 1 mM benzylamine; read-out: Inhibitory Activity (IC50, nM) MAO-B
Counter-ions that a name gives are not always drawn.
Measure: log10 of IC50 (log10 of the value in nM)

[[record]]
compound = "Cc1cc(-c2ccc(Cn3nnn(CC(CN)=C(F)F)c3=O)s2)cc2c1NC(=O)CC2 [Example 45, trifluoroacetate]"
value_observed = 3.86

[[record]]
compound = "CCn1cc(-c2ccc(-n3nnn(CC(CN)=C(F)F)c3=O)cc2)ccc1=O [Example 18, trifluoroacetate]"
value_observed = 1.89

[[record]]
compound = "CN(C)c1ccc(-c2cccc(Cn3nnn(CC(CN)=C(F)F)c3=O)c2)cn1 [Example 29, trifluoroacetate]"
value_observed = 4.16

[[record]]
compound = "Cc1cc(-c2cncc(-n3nnn(CC(CN)=C(F)F)c3=O)c2)cc2c1NC(=O)CC2 [Example 49, trifluoroacetate]"
value_observed = 3.85

[[record]]
compound = "Cc1ccc(-c2ccc(S(C)(=O)=O)cc2)nc1-n1nnn(CC(CN)=C(F)F)c1=O [Example 23, trifluoroacetate]"
value_observed = 4.77


---

Recorded IC50, one value per entry.
# Test target: recombinant human DAO (diamine oxidase) (Homo sapiens, UniProt P19801)
# Construct: purchased R&D systems
# Sequence (P19801 20-751): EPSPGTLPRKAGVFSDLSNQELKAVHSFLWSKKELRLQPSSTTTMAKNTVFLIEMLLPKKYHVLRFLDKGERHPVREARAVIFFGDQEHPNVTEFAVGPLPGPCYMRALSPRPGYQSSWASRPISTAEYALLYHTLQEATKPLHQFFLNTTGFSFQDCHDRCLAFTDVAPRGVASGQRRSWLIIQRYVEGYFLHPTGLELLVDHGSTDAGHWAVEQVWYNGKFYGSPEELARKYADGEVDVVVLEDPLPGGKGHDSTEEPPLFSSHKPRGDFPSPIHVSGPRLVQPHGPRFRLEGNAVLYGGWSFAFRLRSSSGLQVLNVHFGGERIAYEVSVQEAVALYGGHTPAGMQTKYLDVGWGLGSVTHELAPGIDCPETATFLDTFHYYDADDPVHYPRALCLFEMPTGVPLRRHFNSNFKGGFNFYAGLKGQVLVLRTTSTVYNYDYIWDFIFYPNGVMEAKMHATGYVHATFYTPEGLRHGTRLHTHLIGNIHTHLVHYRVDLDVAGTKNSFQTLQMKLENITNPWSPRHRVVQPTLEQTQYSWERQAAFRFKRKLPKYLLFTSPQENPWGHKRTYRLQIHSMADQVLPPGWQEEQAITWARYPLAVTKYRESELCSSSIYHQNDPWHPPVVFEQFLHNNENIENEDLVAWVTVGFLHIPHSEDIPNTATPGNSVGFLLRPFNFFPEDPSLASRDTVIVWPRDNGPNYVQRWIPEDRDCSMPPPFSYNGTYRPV
# Procedure text: Amplex Red HRP-coupled amine oxidase activity evaluation, recombinant human DAO
# Type: biochemical
# Procedure: [The source words this procedure for another target and says it was used here with some conditions changed.] The compounds according to the present technology were evaluated in terms of activity on recombinant human VAP-1 (R&D systems) by measuring the level of hydrogen peroxide in horseradish peroxidase (HRP)-coupled reaction using Amplex Red Hydrogen Peroxide Assay Kit (Molecular Probes, Invitrogen, USA). […] The inhibitory effect of the compounds was measured as a decrease (%) in the signal rate as compared to the control group without any inhibitor (only diluted DMSO). […]
Where a name gives a salt, the structure may show the parent alone.
Measure: IC50 (nM)

[[record]]
compound = "CN1C(=O)CCc2cc(-c3cccc(-n4nnn(CC(CN)=C(F)F)c4=O)c3)ccc21 [Example 14, trifluoroacetate]"
measure = "IC50"
value_observed = 12

[[record]]
compound = "Cc1ccc(-c2cc(C)c3c(c2)CCC(=O)N3)nc1-n1nnn(CC(CN)=C(F)F)c1=O [Example 25, trifluoroacetate]"
measure = "IC50"
value_observed = 1110

[[record]]
compound = "Cc1ccc(-c2ccc3c(c2)CCC(=O)N3C)nc1-n1nnn(CC(CN)=C(F)F)c1=O [Example 26, trifluoroacetate]"
measure = "IC50"
value_observed = 4370

[[record]]
compound = "CCn1cc(-c2cccc(-n3nnn(CC(CN)=C(F)F)c3=O)c2)cn1 [Example 15, trifluoroacetate]"
measure = "IC50"
value_observed = 113

[[record]]
compound = "NCC(Cn1nnn(-c2cncc(-c3ccc4c(c3)OCO4)c2)c1=O)=C(F)F [Example 48, trifluoroacetate]"
measure = "IC50"
value_observed = 56

[[record]]
compound = "Cc1cc(-c2cncc(-n3nnn(CC(CN)=C(F)F)c3=O)c2)cc2c1NC(=O)CC2 [Example 49, trifluoroacetate]"
measure = "IC50"
value_observed = 3.5


---

# Test target: recombinant human VAP-1 (Homo sapiens)
# Construct: purchased R&D systems
# Procedure text: Amplex Red HRP-coupled amine oxidase activity evaluation, recombinant human VAP-1
# Assay type: biochemical
# Measurement conditions: substrate 1 mM benzylamine; 30 min preincubation at 37° C.; read-out: Inhibitory Activity (IC50, nM) human VAP-1
Where a name gives a salt, the structure may show the parent alone.
Measure: IC50 (nM)

[[record]]
molecule = "CN1C(=O)CCc2cc(-c3ccc(-n4nnn(CC(CN)=C(F)F)c4=O)cc3)ccc21 [Example 21, trifluoroacetate]"
measure = "IC50"
value_observed = 0.5

[[record]]
molecule = "CN1C(=O)CCc2cc(-c3cccc(Cn4nnn(CC(CN)=C(F)F)c4=O)c3)ccc21 [Example 33, trifluoroacetate]"
measure = "IC50"
value_observed = 0.3

[[record]]
molecule = "NCC(Cn1nnn(-c2cc(-c3ccc(N4CCNCC4)cc3)cs2)c1=O)=C(F)F [Example 36, di-trifluoroacetate]"
measure = "IC50"
value_observed = 1.1

[[record]]
molecule = "NCC(Cn1nnn(-c2cncc(-c3ccc4c(c3)OCO4)c2)c1=O)=C(F)F [Example 48, trifluoroacetate]"
measure = "IC50"
value_observed = 2.9

[[record]]
molecule = "Cc1ccc(-c2ccc3c(c2)CCC(=O)N3C)nc1-n1nnn(CC(CN)=C(F)F)c1=O [Example 26, trifluoroacetate]"
measure = "IC50"
value_observed = 19

[[record]]
molecule = "Cc1cc(-c2csc(-n3nnn(CC(CN)=C(F)F)c3=O)c2)cc2c1NC(=O)CC2 [Example 40, trifluoroacetate]"
measure = "IC50"
value_observed = 0.4

[[record]]
molecule = "CS(=O)(=O)c1ccc(-c2ccc(Cn3nnn(CC(CN)=C(F)F)c3=O)s2)cc1 [Example 43, trifluoroacetate]"
measure = "IC50"
value_observed = 0.4


---

# Test target: recombinant human VAP-1 (Homo sapiens, UniProt Q16853)
# Construct: purchased R&D systems
# Sequence (Q16853 1-763): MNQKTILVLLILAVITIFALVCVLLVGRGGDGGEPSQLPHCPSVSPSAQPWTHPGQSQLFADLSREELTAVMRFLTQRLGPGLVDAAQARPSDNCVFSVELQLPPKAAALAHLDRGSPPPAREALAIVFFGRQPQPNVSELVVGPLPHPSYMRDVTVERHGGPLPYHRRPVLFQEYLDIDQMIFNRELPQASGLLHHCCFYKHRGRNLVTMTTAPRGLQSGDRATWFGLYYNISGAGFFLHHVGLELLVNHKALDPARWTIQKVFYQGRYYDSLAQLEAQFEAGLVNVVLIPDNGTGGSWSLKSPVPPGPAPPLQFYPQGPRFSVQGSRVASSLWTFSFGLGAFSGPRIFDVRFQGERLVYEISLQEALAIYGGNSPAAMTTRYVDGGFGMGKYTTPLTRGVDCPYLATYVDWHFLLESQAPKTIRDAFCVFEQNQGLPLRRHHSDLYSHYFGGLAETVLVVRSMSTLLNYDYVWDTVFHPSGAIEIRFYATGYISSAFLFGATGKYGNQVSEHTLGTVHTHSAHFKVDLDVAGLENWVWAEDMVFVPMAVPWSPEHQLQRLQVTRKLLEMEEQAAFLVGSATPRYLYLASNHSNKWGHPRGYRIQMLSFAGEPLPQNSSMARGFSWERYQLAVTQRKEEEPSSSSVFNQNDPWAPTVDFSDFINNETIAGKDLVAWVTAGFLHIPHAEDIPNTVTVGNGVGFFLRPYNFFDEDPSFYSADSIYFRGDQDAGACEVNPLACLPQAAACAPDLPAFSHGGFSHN
# Procedure text: Amplex Red HRP-coupled amine oxidase activity evaluation, recombinant human VAP-1
# Assay type: biochemical
# Measurement conditions: substrate 1 mM benzylamine; 30 min preincubation at 37° C.; read-out: Inhibitory Activity (IC50, nM) human VAP-1
# Description: The compounds according to the present technology were evaluated in terms of activity on recombinant human VAP-1 (R&D systems) by measuring the level of hydrogen peroxide in horseradish peroxidase (HRP)-coupled reaction using Amplex Red Hydrogen Peroxide Assay Kit (Molecular Probes, Invitrogen, USA). […] The inhibitory effect of the compounds was measured as a decrease (%) in the signal rate as compared to the control group without any inhibitor (only diluted DMSO). […]
Where a name gives a salt, the structure may show the parent alone.
Recorded IC50, one value per entry.
Measure: IC50 (nM)

[[record]]
compound = "NCC(Cn1nnn(Cc2cccc(-c3ccc4c(c3)OCO4)c2)c1=O)=C(F)F [Example 30, trifluoroacetate]"
measure = "IC50"
relation_operator = "="
value_observed = 0.8

[[record]]
compound = "Cc1ccc(-c2ccc(S(C)(=O)=O)cc2)nc1-n1nnn(CC(CN)=C(F)F)c1=O [Example 23, trifluoroacetate]"
measure = "IC50"
relation_operator = ">"
value_observed = 100

[[record]]
compound = "CS(=O)(=O)c1ccc(-c2ccc(-n3nnn(CC(CN)=C(F)F)c3=O)cc2)cc1 [Example 16, trifluoroacetate]"
measure = "IC50"
relation_operator = "="
value_observed = 1.5

[[record]]
compound = "CCn1cc(-c2csc(-n3nnn(CC(CN)=C(F)F)c3=O)c2)cn1 [Example 42, trifluoroacetate]"
measure = "IC50"
relation_operator = "="
value_observed = 0.4

[[record]]
compound = "CCn1cc(-c2ccc(Cn3c(C)nn(CC(CN)=C(F)F)c3=O)s2)ccc1=O [Example 4, trifluoroacetate]"
measure = "IC50"
relation_operator = "="
value_observed = 1.5

[[record]]
compound = "CCn1cc(-c2ccc(-n3nnn(CC(CN)=C(F)F)c3=O)cc2)ccc1=O [Example 18, trifluoroacetate]"
measure = "IC50"
relation_operator = "="
value_observed = 0.2

[[record]]
compound = "CN1C(=O)CCc2cc(-c3cccc(-n4nnn(CC(CN)=C(F)F)c4=O)c3)ccc21 [Example 14, trifluoroacetate]"
measure = "IC50"
relation_operator = "="
value_observed = 1.4

[[record]]
compound = "CN1C(=O)CCc2cc(-c3csc(-n4nnn(CC(CN)=C(F)F)c4=O)c3)ccc21 [Example 41, trifluoroacetate]"
measure = "IC50"
relation_operator = "="
value_observed = 0.4

[[record]]
compound = "Cc1nn(CC(CN)=C(F)F)c(=O)n1Cc1ccc(-c2ccc3c(c2)CCC(=O)N3C)s1 [Example 8, trifluoroacetate]"
measure = "IC50"
relation_operator = "="
value_observed = 1

[[record]]
compound = "NCC(Cn1ccn(Cc2ccc(-c3ccn4ncnc4c3)s2)c1=O)=C(F)F [Example 53, trifluoroacetate]"
measure = "IC50"
relation_operator = ">"
value_observed = 100

[[record]]
compound = "CS(=O)(=O)c1ccc(-c2cccc(-n3nnn(CC(CN)=C(F)F)c3=O)c2)cc1 [Example 10, trifluoroacetate]"
measure = "IC50"
relation_operator = "="
value_observed = 0.4

[[record]]
compound = "CN(C)c1ccc(-c2cccc(Cn3nnn(CC(CN)=C(F)F)c3=O)c2)cn1 [Example 29, trifluoroacetate]"
measure = "IC50"
relation_operator = "="
value_observed = 0.7

[[record]]
compound = "Cc1cc(-c2ccc(Cn3c(C)nn(CC(CN)=C(F)F)c3=O)s2)cc2c1NC(=O)CC2 [Example 7, trifluoroacetate]"
measure = "IC50"
relation_operator = "="
value_observed = 1

[[record]]
compound = "CS(=O)(=O)c1ccc(-c2cccc(Cn3nnn(CC(CN)=C(F)F)c3=O)c2)cc1 [Example 27, trifluoroacetate]"
measure = "IC50"
relation_operator = "="
value_observed = 1

[[record]]
compound = "Cc1nn(CC(CN)=C(F)F)c(=O)n1Cc1ccc(-c2ccc(N3CCNCC3)cc2)s1 [Example 3, di-trifluoroacetate]"
measure = "IC50"
relation_operator = "="
value_observed = 18

[[record]]
compound = "CCn1cc(-c2ccc(Cn3ccn(CC(CN)=C(F)F)c3=O)s2)cn1 [Example 52, trifluoroacetate]"
measure = "IC50"
relation_operator = ">"
value_observed = 100

[[record]]
compound = "NCC(Cn1nnn(-c2ccc(-c3ccc(N4CCNCC4)cc3)cc2)c1=O)=C(F)F [Example 17, di-trifluoroacetate]"
measure = "IC50"
relation_operator = "="
value_observed = 1.2

[[record]]
compound = "Cc1cc(-c2ccc(-n3nnn(CC(CN)=C(F)F)c3=O)cc2)cc2c1NC(=O)CC2 [Example 20, trifluoroacetate]"
measure = "IC50"
relation_operator = "="
value_observed = 0.4

[[record]]
compound = "CCn1cc(-c2cccc(-n3nnn(CC(CN)=C(F)F)c3=O)c2)cn1 [Example 15, trifluoroacetate]"
measure = "IC50"
relation_operator = "="
value_observed = 1

[[record]]
compound = "CN1C(=O)CCc2cc(-c3ccc(Cn4nnn(CC(CN)=C(F)F)c4=O)s3)ccc21 [Example 46, trifluoroacetate]"
measure = "IC50"
relation_operator = "="
value_observed = 0.5

[[record]]
compound = "NCC(Cn1nnn(-c2cccc(-c3ccc(N4CCNCC4)cc3)c2)c1=O)=C(F)F [Example 11, trifluoroacetate]"
measure = "IC50"
relation_operator = "="
value_observed = 7

[[record]]
compound = "CCn1cc(-c2ccc(Cn3c(C)nn(CC(CN)=C(F)F)c3=O)s2)cn1 [Example 1, trifluoroacetate]"
measure = "IC50"
relation_operator = "="
value_observed = 1.7

[[record]]
compound = "NCC(Cn1nnn(-c2cc(-c3ccc4c(c3)OCO4)cs2)c1=O)=C(F)F [Example 39, trifluoroacetate]"
measure = "IC50"
relation_operator = "="
value_observed = 0.6

[[record]]
compound = "Cc1cc(-c2cccc(Cn3nnn(CC(CN)=C(F)F)c3=O)c2)cc2c1NC(=O)CC2 [Example 31, trifluoroacetate]"
measure = "IC50"
relation_operator = "="
value_observed = 0.6

[[record]]
compound = "CN(C)c1ccc(-c2csc(-n3nnn(CC(CN)=C(F)F)c3=O)c2)cn1 [Example 38, trifluoroacetate]"
measure = "IC50"
relation_operator = "="
value_observed = 0.8

[[record]]
compound = "Cc1cc(-c2cncc(-n3nnn(CC(CN)=C(F)F)c3=O)c2)cc2c1NC(=O)CC2 [Example 49, trifluoroacetate]"
measure = "IC50"
relation_operator = "="
value_observed = 0.9

[[record]]
compound = "CCn1cc(-c2ccc(Cn3nnn(CC(CN)=C(F)F)c3=O)s2)ccc1=O"
measure = "IC50"
relation_operator = "="
value_observed = 0.3

[[record]]
compound = "NCC(Cn1nnn(Cc2cccc(-c3ccc(N4CCNCC4)cc3)c2)c1=O)=C(F)F [Example 28, di-trifluoroacetate]"
measure = "IC50"
relation_operator = "="
value_observed = 1.8


Attribution: patent US12110279B2
